These data points were gathered from ChEMBL document CHEMBL1147827.

Test system: Vaccinia virus
Test: Antiviral activity against Vaccinia virus Copenhagen in HFF cells assessed as reduction in cytopathogenicity
Assay type: functional, organism-based
Details: Orthopoxvirus vaccinia
EXPERIMENTAL READOUT: pEC50
Please treat pEC50 as minus the base-10 logarithm of the molar concentration.

input: Tell me pEC50 reported for "CC(=O)OC[C@H]1O[C@@H](n2cc(/C=C3\C(=O)N(c4ccccc4)N=C3C)c(=O)[nH]c2=O)C[C@@H]1OC(C)=O"
output: 4.49
